B1: HHH_rd1_0493 (parent)
chain: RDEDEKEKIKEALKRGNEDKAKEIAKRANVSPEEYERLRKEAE

Variants of: B1
method-summary: folding stability dG (cDNA display proteolysis); higher = more stable
run-parameters: PBS, room temperature
We use 2 kcal/mol as the dividing line for folding stability dG: on or above the line is satisfied, below is not satisfied.

Problem: Could you tell me if the measured folding stability dG of E11K reaches 2 kcal/mol or more?
Solution: satisfied

Problem: Could you tell me if the measured folding stability dG of D2R reaches 2 kcal/mol or more?
Solution: satisfied

Problem: Could you tell me if the measured folding stability dG of A42F reaches 2 kcal/mol or more?
Solution: satisfied

Problem: Could you tell me if the measured folding stability dG of L13M reaches 2 kcal/mol or more?
Solution: satisfied

Problem: Could you tell me if the measured folding stability dG of A25D reaches 2 kcal/mol or more?
Solution: not satisfied

Problem: Could you tell me if the measured folding stability dG of E43K reaches 2 kcal/mol or more?
Solution: satisfied

Problem: Could you tell me if the measured folding stability dG of E11H reaches 2 kcal/mol or more?
Solution: satisfied

Problem: Could you tell me if the measured folding stability dG of E41H reaches 2 kcal/mol or more?
Solution: not satisfied

Problem: Could you tell me if the measured folding stability dG of R15H reaches 2 kcal/mol or more?
Solution: satisfied

Problem: Could you tell me if the measured folding stability dG of E41A reaches 2 kcal/mol or more?
Solution: satisfied

Problem: Could you tell me if the measured folding stability dG of A28D reaches 2 kcal/mol or more?
Solution: not satisfied

Problem: Could you tell me if the measured folding stability dG of K8M reaches 2 kcal/mol or more?
Solution: satisfied

Problem: Could you tell me if the measured folding stability dG of G16E reaches 2 kcal/mol or more?
Solution: not satisfied

Problem: Could you tell me if the measured folding stability dG of A28F reaches 2 kcal/mol or more?
Solution: satisfied

Problem: Could you tell me if the measured folding stability dG of K22D reaches 2 kcal/mol or more?
Solution: not satisfied

Problem: Could you tell me if the measured folding stability dG of A42G reaches 2 kcal/mol or more?
Solution: not satisfied

Problem: Could you tell me if the measured folding stability dG of K22M reaches 2 kcal/mol or more?
Solution: satisfied

Problem: Could you tell me if the measured folding stability dG of A42N reaches 2 kcal/mol or more?
Solution: not satisfied

Problem: Could you tell me if the measured folding stability dG of I24M reaches 2 kcal/mol or more?
Solution: satisfied

Problem: Could you tell me if the measured folding stability dG of I24T reaches 2 kcal/mol or more?
Solution: not satisfied

Problem: Could you tell me if the measured folding stability dG of N29V reaches 2 kcal/mol or more?
Solution: not satisfied
